Cited source for all entries: patent US20260234157A1

# Assayed target: AR protein (Homo sapiens, UniProt P10275, T878A)
# Construct: degradation activity of the compounds disclosed in the present disclosure on AR protein in LNCaP cells; host or cells: LNCaP FGC
# Sequence (P10275 1-920 T878A): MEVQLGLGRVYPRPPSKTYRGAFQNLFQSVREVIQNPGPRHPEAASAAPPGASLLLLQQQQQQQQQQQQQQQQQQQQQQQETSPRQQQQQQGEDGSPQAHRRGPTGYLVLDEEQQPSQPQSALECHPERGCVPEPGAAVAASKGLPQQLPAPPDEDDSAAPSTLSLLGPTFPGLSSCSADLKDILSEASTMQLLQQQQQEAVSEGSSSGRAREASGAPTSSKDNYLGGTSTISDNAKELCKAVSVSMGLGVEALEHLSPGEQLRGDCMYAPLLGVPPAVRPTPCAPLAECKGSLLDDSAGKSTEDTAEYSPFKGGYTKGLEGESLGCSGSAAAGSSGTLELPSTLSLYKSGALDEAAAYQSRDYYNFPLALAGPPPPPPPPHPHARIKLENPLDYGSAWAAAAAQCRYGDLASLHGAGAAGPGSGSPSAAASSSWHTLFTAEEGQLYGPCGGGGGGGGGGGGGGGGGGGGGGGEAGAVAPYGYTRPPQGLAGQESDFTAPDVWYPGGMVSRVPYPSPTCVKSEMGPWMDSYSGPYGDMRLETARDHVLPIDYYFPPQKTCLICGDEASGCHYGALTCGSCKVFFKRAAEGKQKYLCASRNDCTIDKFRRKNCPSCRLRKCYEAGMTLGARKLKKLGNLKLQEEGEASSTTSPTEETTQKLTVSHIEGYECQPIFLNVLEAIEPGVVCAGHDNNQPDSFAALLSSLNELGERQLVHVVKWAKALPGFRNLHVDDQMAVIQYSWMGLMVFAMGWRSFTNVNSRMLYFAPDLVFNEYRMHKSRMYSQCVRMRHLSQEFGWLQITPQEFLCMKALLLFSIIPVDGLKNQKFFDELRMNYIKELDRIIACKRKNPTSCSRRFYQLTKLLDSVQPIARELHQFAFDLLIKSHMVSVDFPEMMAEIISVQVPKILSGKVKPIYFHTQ
# Experimental protocol: Degradation of AR protein in LNCaP cells (Western blot)
# Type: cell-based
# Conditions used: LNCaP cells, compound 100 nM, 8 hours, Western blot grayscale, GAPDH internal reference; read-out: Degradation rates of the AR protein in LNCaP cells, 100 nM (%)
Documented inhibition at 0.1 µM across a set of compounds

Compound	inhibition at 0.1 µM
N#Cc1ccc(O[C@H]2CC[C@H](NC(=O)c3cnc(N4CCC(F)(CN5CCC6(CC5)COc5c6ccc6c5CN(C5CCC(=O)NC5=O)C6=O)CC4)nc3)CC2)cc1Cl (stereo partly drawn)	37%
COC1(CN2CCC3(CC2)COc2cc4c(cc2C3)C(=O)N(C2CCC(=O)NC2=O)C4=O)CCN(c2ccc(C(=O)NC3CCC(Oc4ccc(C#N)c(Cl)c4)CC3)nn2)CC1 (stereo not drawn)	64%
N#Cc1ccc(O[C@H]2CC[C@H](NC(=O)c3ccc(N4CC5(CCC(C(=O)N6CCC7(CC6)COc6c7ccc7c6CN(C6CCC(=O)NC6=O)C7=O)CC5)C4)nn3)CC2)cc1Cl (stereo partly drawn)	44%
COc1cc(OC2CCC(NC(=O)c3cnc(N4CCC(C)(CN5CCC6(CC5)COc5c6ccc6c5C(=O)N(C5CCC(=O)NC5=O)C6=O)CC4)nc3)CC2)ccc1C#N (stereo not drawn)	43%
N#Cc1ccc(O[C@H]2CC[C@H](NC(=O)c3cnc(N4CCC(F)(CN5CCC6(CC5)COc5c6ccc6c5CN(C5CCC(=O)NC5=O)C6=O)CC4)cn3)CC2)cc1Cl (stereo partly drawn)	52%
CC1(CN2CCC3(CCc4cc5c(cc4O3)C(=O)N(C3CCC(=O)NC3=O)C5=O)CC2)CCN(c2ccc(C(=O)N[C@H]3CC[C@H](Oc4ccc(C#N)c(Cl)c4)CC3)nn2)CC1 (stereo partly drawn)	65%

###

# Assayed target: AR protein (Homo sapiens, UniProt P10275, T878A)
# Construct: degradation activity of the compounds disclosed in the present disclosure on AR protein in LNCaP cells; host or cells: LNCaP FGC
# Sequence (P10275 1-920 T878A): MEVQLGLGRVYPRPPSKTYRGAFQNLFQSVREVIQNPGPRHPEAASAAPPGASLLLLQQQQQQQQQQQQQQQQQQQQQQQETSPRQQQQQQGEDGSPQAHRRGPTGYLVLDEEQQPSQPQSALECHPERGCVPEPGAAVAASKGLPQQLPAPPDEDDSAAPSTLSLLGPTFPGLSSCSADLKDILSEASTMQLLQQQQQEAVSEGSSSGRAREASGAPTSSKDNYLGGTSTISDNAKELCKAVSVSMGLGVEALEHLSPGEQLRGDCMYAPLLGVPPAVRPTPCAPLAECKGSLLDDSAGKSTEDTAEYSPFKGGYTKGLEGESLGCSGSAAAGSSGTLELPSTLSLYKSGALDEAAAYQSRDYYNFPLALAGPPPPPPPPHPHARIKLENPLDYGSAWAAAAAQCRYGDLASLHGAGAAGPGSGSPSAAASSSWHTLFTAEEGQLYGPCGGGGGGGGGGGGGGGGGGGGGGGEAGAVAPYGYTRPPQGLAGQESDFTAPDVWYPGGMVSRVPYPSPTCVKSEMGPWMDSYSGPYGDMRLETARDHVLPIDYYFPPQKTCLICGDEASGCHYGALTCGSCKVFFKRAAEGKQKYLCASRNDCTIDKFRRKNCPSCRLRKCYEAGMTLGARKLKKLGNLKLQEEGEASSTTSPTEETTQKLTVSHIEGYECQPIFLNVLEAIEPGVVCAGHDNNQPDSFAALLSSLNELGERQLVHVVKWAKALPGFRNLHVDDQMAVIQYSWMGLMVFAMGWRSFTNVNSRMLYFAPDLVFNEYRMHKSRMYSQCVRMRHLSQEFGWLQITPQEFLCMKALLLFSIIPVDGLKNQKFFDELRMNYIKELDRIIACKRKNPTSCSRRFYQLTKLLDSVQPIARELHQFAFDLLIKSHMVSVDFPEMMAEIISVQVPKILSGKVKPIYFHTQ
# Experimental protocol: Degradation of AR protein in LNCaP cells (Western blot)
# Type: cell-based
# Conditions used: LNCaP cells, compound 10 nM, 8 hours, Western blot grayscale, GAPDH internal reference; read-out: Degradation rates of the AR protein in LNCaP cells, 10 nM (%)
Documented inhibition at 0.01 µM across a set of molecules

Molecule	Assayed target	inhibition at 0.01 µM [%]
N#Cc1ccc(O[C@H]2CC[C@H](NC(=O)c3ccc(N4CCC5(CCC(N6CCC7(CCc8ccc9c(c8O7)CN(C7CCC(=O)NC7=O)C9=O)CC6)CC5)CC4)nn3)CC2)cc1Cl (stereo partly shown) [Compound 150]	AR protein (Homo sapiens, UniProt P10275, T878A)	52
N#Cc1ccc(O[C@H]2CC[C@H](NC(=O)c3ccc(N4CCC5(CC(N6CCC7(CC6)COc6cc8c(cc67)C(=O)N(C6CCC(=O)NC6=O)C8=O)C5)C4)nn3)CC2)cc1Cl (stereo partly shown) [Compound 54]	AR protein (Homo sapiens, UniProt P10275, T878A)	24
N#Cc1ccc(O[C@H]2CC[C@H](NC(=O)c3ccc(N4CCC(CN5CCC6(CC5)COc5cc7c(cc5C6)C(=O)N(C5CCC(=O)NC5=O)C7=O)CC4)nn3)CC2)cc1Cl (stereo partly shown) [Compound 72]	AR protein (Homo sapiens, UniProt P10275, T878A)	81
COc1cc(O[C@H]2C(C)(C)[C@H](NC(=O)c3ccc(N4CCC(C)(CN5CCC6(CCc7cc8c(cc7O6)C(=O)N(C6CCC(=O)NC6=O)C8=O)CC5)CC4)cc3)C2(C)C)ccc1C#N (stereo partly shown) [Compound 287]	AR protein (Homo sapiens, UniProt P10275, T878A)	28
COc1cc(O[C@H]2C(C)(C)[C@H](NC(=O)c3ccc(N4CCC(CN5CC6(CCc7ccc8c(c7O6)C(=O)N(C6CCC(=O)NC6=O)C8=O)C5)CC4)cc3)C2(C)C)ccc1C#N (stereo partly shown) [Compound 278]	AR protein (Homo sapiens, UniProt P10275, T878A)	-3
COc1cc(O[C@H]2C(C)(C)[C@H](NC(=O)c3ccc(N4CCC(C)(CN5CCC6(CCc7ccc8c(c7O6)C(=O)N(C6CCC(=O)NC6=O)C8=O)CC5)CC4)cc3)C2(C)C)ccc1C#N (stereo partly shown) [Compound 268]	AR protein (Homo sapiens, UniProt P10275, T878A)	15
N#Cc1ccc(O[C@H]2CC[C@H](NC(=O)c3ccc(N4CCC(CC(=O)N5CCC6(CC5)COc5c6ccc6c5CN(C5CCC(=O)NC5=O)C6=O)CC4)nn3)CC2)cc1Cl (stereo partly shown) [Compound 192]	AR protein (Homo sapiens, UniProt P10275, T878A)	37
COc1cc(O[C@H]2C(C)(C)[C@H](NC(=O)c3ccc(N4CCC(C)(CN5CCC6(CCc7cc8c(cc7O6)CN(C6CCC(=O)NC6=O)C8=O)CC5)CC4)cc3)C2(C)C)ccc1C#N (stereo partly shown) [Compound 281]	AR protein (Homo sapiens, UniProt P10275, T878A)	20
N#Cc1ccc(O[C@H]2CC[C@H](NC(=O)c3ccc(C#CC4CC5(C4)CC(N4CCC6(CC4)COc4c6ccc6c4CN(C4CCC(=O)NC4=O)C6=O)C5)nn3)CC2)cc1Cl (stereo partly shown) [Compound 252]	AR protein (Homo sapiens, UniProt P10275, T878A)	56
N#Cc1ccc(O[C@H]2CC[C@H](NC(=O)c3ccc(N4CC5(CC(N6CCC7(CCc8ccc9c(c8O7)CN(C7CCC(=O)NC7=O)C9=O)CC6)C5)C4)nn3)CC2)cc1Cl (stereo partly shown) [Compound 152]	AR protein (Homo sapiens, UniProt P10275, T878A)	45
